Form field: solubility at 2 h (one value per entry).
assay: Kinetic solubility; format: physicochemical; settings: FaSSIF buffer, 22 °C, pH 6.5, fassif, kinetic from dmso stock; read-out: Solubility FaSSIF pH 6.5
Only the number, expressed in µM, is required.

{"chemicalStructure": "C[C@H]1[C@H](N2CCS(=O)(=O)CC2)O[C@@H]2O[C@@]3(C)CC[C@H]4[C@H](C)CC[C@@H]1[C@@]24OO3", "solubility at 2 h, µM": 74.4}

We next turn to a different compound, shown below.
Give its solubility at 2 h value. Item: C[C@H]1[C@H](N2CCN(C(=O)Nc3ccc(F)cc3)CC2)O[C@@H]2O[C@@]3(C)CC[C@H]4[C@H](C)CC[C@@H]1[C@@]24OO3
24

----------
assay: Pharmacokinetics in mice, intravenous administration; format: in vivo, male C57/BL6 mice; settings: male, C57/BL6, mouse, plasma, iv, 10 mg/kg, i.v. 10 mg/kg, total plasma clearance; read-out: CLtot
readoutKind: clearance (mL/min/kg)
Only the number, expressed in mL/min/kg, is required.

Solved entries:
{"compound": "C[C@H]1[C@H](N2CCSCC2)O[C@@H]2O[C@@]3(C)CC[C@H]4[C@H](C)CC[C@@H]1[C@@]24OO3 [Artemiside 5, artemiside]", "clearance, mL/min/kg": 130}
{"compound": "C[C@H]1[C@H](N2CCS(=O)(=O)CC2)O[C@@H]2O[C@@]3(C)CC[C@H]4[C@H](C)CC[C@@H]1[C@@]24OO3 [Artemisone 6, artemisone]", "clearance, mL/min/kg": 42.3}
{"compound": "C[C@H]1[C@H](N2CCN(C(=O)Nc3ccc(F)cc3)CC2)O[C@@H]2O[C@@]3(C)CC[C@H]4[C@H](C)CC[C@@H]1[C@@]24OO3 [Arylurea 10]", "clearance, mL/min/kg": 58.9}
{"compound": "CO[C@H]1O[C@@H]2O[C@@]3(C)CC[C@H]4[C@H](C)CC[C@@H]([C@H]1C)[C@@]24OO3 [Artemether 3, artemether]", "clearance, mL/min/kg": 120}

Give its clearance value. Item: C[C@H]1[C@H](NS(N)(=O)=O)O[C@@H]2O[C@@]3(C)CC[C@H]4[C@H](C)CC[C@@H]1[C@@]24OO3 [Sulfamide 7]
32.2

Give its clearance value. Item: C[C@@H]1CC[C@H]2[C@@H](C)C(=O)N[C@@H]3O[C@@]4(C)CC[C@@H]1[C@]32OO4 [11-Aza-artemisinin 11, 11-aza-artemisinin]
75

----------
assay: Kinetic solubility; type: physicochemical; settings: FaSSIF buffer, 22 °C, pH 6.5, fassif, kinetic from dmso stock; read-out: Solubility FaSSIF pH 6.5
Form field: solubility at 2 h (one value per entry).

Solved entries:
{"compound": "C[C@H]1[C@H](NS(N)(=O)=O)O[C@@H]2O[C@@]3(C)CC[C@H]4[C@H](C)CC[C@@H]1[C@@]24OO3 [Sulfamide 7]", "testValue": "< 5 µM"}
{"compound": "C[C@H]1[C@H](N2C=CS(=O)(=O)CC2)O[C@@H]2O[C@@]3(C)CC[C@H]4[C@H](C)CC[C@@H]1[C@@]24OO3", "testValue": "57.6 µM"}

We next turn to a different compound, shown below.
Give its solubility at 2 h value. Item: C[C@H]1[C@H](N2CCSCC2)O[C@@H]2O[C@@]3(C)CC[C@H]4[C@H](C)CC[C@@H]1[C@@]24OO3 [Artemiside 5, artemiside]
< 5 µM

Source listed as paper PMC8284440.
